- System: DERL-7 (IL-2 2.5 ng/mL);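 also: normalised to DMSO-only wells as negative and benzethonium chloride as positive control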
- Protocol notes: percent inhibition of viability; higher = more inhibition
- Test conditions: 72 h; 10 nM
Quick list: percent inhibition of viability per entry.
Give the number; % is assumed, so skip it.

Worked set:
Compound	Result type	Value observed
Cc1ccc(C(=O)Nc2ccc(CN3CCN(C)CC3)c(C(F)(F)F)c2)cc1C#Cc1cnc2cccnn12 [Ponatinib] (max concentration tested 1000 nM)	percent inhibition of viability	-1.37
N#CCNC(=O)c1ccc(-c2ccnc(Nc3ccc(N4CCOCC4)cc3)n2)cc1 [Momelotinib] (max concentration tested 10000 nM)	percent inhibition of viability	4.25
Clc1ccc(Nc2nnc(Cc3ccncc3)c3ccccc23)cc1 [Vatalanib] (max concentration tested 10000 nM)	percent inhibition of viability	5.91
O=C(CCCCCCC(=O)Nc1ccc([C@H]2O[C@@H](CSc3nc(-c4ccccc4)c(-c4ccccc4)o3)C[C@@H](c3ccc(CO)cc3)O2)cc1)NO [Tubacin] (max concentration tested 10000 nM)	percent inhibition of viability	4.2
CC(C)c1c(C(=O)Nc2ccccc2)c(-c2ccccc2)c(-c2ccc(F)cc2)n1CC[C@@H](O)C[C@@H](O)CC(=O)O [Atorvastatin] (max concentration tested 10000 nM)	percent inhibition of viability	-0.16
CC(C)n1cnc2c(NCCc3ccc(O)cc3)nc(-c3csc4ccccc34)nc21 [StemRegenin 1] (max concentration tested 10000 nM)	percent inhibition of viability	15.4
CO[C@@H](C(=O)N1Cc2[nH]nc(NC(=O)c3ccc(N4CCN(C)CC4)cc3)c2C1)c1ccccc1 [Danusertib] (max concentration tested 10000 nM)	percent inhibition of viability	7.76
C=CCN(/C=C1/C(=O)O[C@H](COC)[C@@]2(C)C1=C(O)C(=O)C1=C2[C@H](OC(C)=O)C[C@]2(C)C(=O)CC[C@@H]12)CC=C [Sonolisib] (max concentration tested 10000 nM)	percent inhibition of viability	0.05

Query compound follows.
Which percent inhibition of viability reading was recorded for the compound CCc1cnn2c(NCc3ccc[n+]([O-])c3)cc(N3CCCC[C@H]3CCO)nc12 [Dinaciclib] (max concentration tested 1000 nM) ?
31.4
